// data source = ChEMBL document CHEMBL2417516

- experimental-target: Metallo beta-lactamase (Pseudomonas aeruginosa, UniProt Q6TUJ4)
- Sequence (Q6TUJ4 whole entry): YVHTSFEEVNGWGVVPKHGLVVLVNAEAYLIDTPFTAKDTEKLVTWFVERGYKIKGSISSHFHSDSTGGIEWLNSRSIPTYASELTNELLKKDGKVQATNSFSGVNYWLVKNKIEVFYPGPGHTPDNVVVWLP
- run-description: Inhibition of carbapenems-resistant Pseudomonas aeruginosa MSC15369 metallo-beta-lactamase IMP1 expressed in Escherichia coli DH5[alpha] using nitrocefin as substrate after 20 mins by spectrophotometry
Lab note - cut at 20 µM for IC50: Fulfilled if strictly below, Not fulfilled if not.

Query: In the record for `O=C(O)c1cccc(N2CCC(O)(c3ccccc3)CC2)c1C(=O)O` , is IC50 less than 20 µM?
Reply: Fulfilled

Query: In the record for `O=C(O)c1cccc(N2CCCC2)c1C(=O)O` , is IC50 less than 20 µM?
Reply: Fulfilled

Query: In the record for `O=C(O)c1cccc(N2CCC(CO)CC2)c1C(=O)O` , is IC50 less than 20 µM?
Reply: Fulfilled

Query: In the record for `O=C(O)c1cccc(OCCCO)c1C(=O)O` , is IC50 less than 20 µM?
Reply: Not fulfilled

Query: In the record for `CCCCOc1cccc(C(=O)O)c1C(=O)O` , is IC50 less than 20 µM?
Reply: Fulfilled

Query: In the record for `O=C(O)CCCCOc1cccc(C(=O)O)c1C(=O)O` , is IC50 less than 20 µM?
Reply: Fulfilled

Query: In the record for `CN(C)c1cccc(C(=O)O)c1C(=O)O` , is IC50 less than 20 µM?
Reply: Not fulfilled

Query: In the record for O=C(O)c1cccc(N2CCCC(CO)C2)c1C(=O)O (centres undefined) , is IC50 less than 20 µM?
Reply: Fulfilled

Query: In the record for `Nc1cccc(C(=O)O)c1C(=O)O` , is IC50 less than 20 µM?
Reply: Not fulfilled

###

- experimental-target: Metallo beta-lactamase (Pseudomonas aeruginosa, UniProt Q6TUJ4)
- run-description: Inhibition of carbapenems-resistant Pseudomonas aeruginosa MSC15369 metallo-beta-lactamase IMP1 expressed in Escherichia coli DH5[alpha] using nitrocefin as substrate after 20 mins by spectrophotometry
// values below are reported IC50
Field: numeric (µM). Do not append units.

>>> print(df.to_string())
                           molecule  test_result
0  O=C(O)c1cccc(OCc2ccccc2)c1C(=O)O          7.4

Query: Please give the measured IC50 for this molecule: `O=C(O)c1cccc(N2CCCCC2)c1C(=O)O`
Reply: 10.8

Query: Please give the measured IC50 for this molecule: `O=C(O)c1cccc(-c2ccc(O)cc2)c1C(=O)O`
Reply: 1.55

###

- experimental-target: Metallo beta-lactamase (Pseudomonas aeruginosa, UniProt Q6TUJ4)
- run-description: Inhibition of carbapenems-resistant Pseudomonas aeruginosa MSC15369 metallo-beta-lactamase IMP1 expressed in Escherichia coli DH5[alpha] using nitrocefin as substrate after 20 mins by spectrophotometry
// values below are reported IC50

Take a look at these entries with their results.
                                   molecule  test_readout  test_result
0  O=C(O)c1cccc(N2CCCC(O)C2)c1C(=O)O (stereo not given)          IC50       2.7 µM
1                   O=C(O)c1cccc(O)c1C(=O)O          IC50     > 300 µM
2                O=C(O)c1cccc(OCCO)c1C(=O)O          IC50      47.8 µM
3        O=C(O)c1cccc(OCCCC2CCCCC2)c1C(=O)O          IC50         2 µM
4        COC1CCN(c2cccc(C(=O)O)c2C(=O)O)CC1          IC50       3.7 µM
5               CCCCNc1cccc(C(=O)O)c1C(=O)O          IC50      13.1 µM
6                  COc1cccc(C(=O)O)c1C(=O)O          IC50       142 µM
7         O=C(O)c1cccc(N2CCC(O)CC2)c1C(=O)O          IC50       2.7 µM

Query: Please give the measured IC50 for this molecule: `O=C(O)c1cccc(N2CCC(CCO)CC2)c1C(=O)O`
Reply: 25.6 µM

Query: Please give the measured IC50 for this molecule: `O=C(O)c1cccc(OCCCc2ccccc2)c1C(=O)O`
Reply: 1.7 µM
